Reported Herbicidal efficacy (%) Matricaria chamomilla values for the following compounds.
# System: Matricaria chamomilla
# TEST_NAME: Greenhouse trial: herbicidal efficacy, Matricaria chamomilla
# Assay type: in vivo
# CONDITION_SUMMARY: post-emergence 2-4-leaf, 14 days after application, g of ai/ha: A1.1 100, B1.1 5, C5 1.25, C24 12.5, C9 7.5, C32 62.5, C37 5, C58 5, C60 10, C61 25, C66 0.375, C71 0.5, C74 0.375, C42 125, mixtures at same rates
# Experimental: The trials were carried out under greenhouse conditions (test pots, diameter 8 cm, spray application using 300 l of water/hectare, 2 repetitions, 6 to 8 plants per pot). At the time of application, the harmful plants were at the 2-4-leaf growth stage. The application rates of the herbicidally active compounds used on their own or in combinations are listed in the results tables. […]
Form entry: value (%) — number only.

Some compounds with known Herbicidal efficacy (%) Matricaria chamomilla results, for comparison:
[
  {
    "COMPOUND": "CC(C)c1ccc(NC(=O)N(C)C)cc1 [(C42) isoproturon, isoproturon]",
    "NUMBER": 15
  },
  {
    "COMPOUND": "COC(=O)c1csc(C)c1S(=O)(=O)NC(=O)n1nc(OC)n(C)c1=O [(C66) thiencarbazone-me, thiencarbazone-methyl]",
    "NUMBER": 10
  },
  {
    "COMPOUND": "CCCOc1nn(C(=O)[N-]S(=O)(=O)c2ccccc2C(=O)OC)c(=O)n1C.[Na+] [(C60) propoxycarbazone-Na, propoxycarbazone-sodium]",
    "NUMBER": 10
  }
]

Consider now this further compound.
GET /values?readout=Herbicidal efficacy (%) Matricaria chamomilla&item= CCOC(=O)C(Cl)Cc1cc(-n2nc(C)n(C(F)F)c2=O)c(F)cc1Cl (stereo not shown) [(C9) carfentrazone, carfentrazone-ethyl] 0

###

# Test system: wheat (GA-tolerant)
# Format: in vivo
# CONDITION_SUMMARY: Table 7; greenhouse, post-emergence, 14 days after application; g of ai/ha: A1.1 100, line r12 5, C28 50, C40 1, C43 100, C13 50; mixtures (100 + 5) + partner rate
The molecules listed here are annotated with their Damage to crop plants (%) wheat (GA-tolerant).
Answer in %, number only, no unit symbol.

[
  {
    "MOLECULE": "CP(=O)(O)CCC(N)C(=O)O (stereo not shown) [(A1.1) GA, glufosinate-ammonium]",
    "NUMBER": 10
  }
]

Dear colleague, I am looking for the recorded Damage to crop plants (%) wheat (GA-tolerant) of the following molecule: Cc1cc(Cl)ccc1OCC(=O)O [(C43) MCPA, MCPA] 0

Follow-up item: COC(=O)c1ccc(I)cc1S(=O)(=O)[N-]C(=O)Nc1nc(C)nc(OC)n1.[Na+] [(C40) iodosulfuron-me-Na, iodosulfuron-methyl-sodium] 0

Follow-up entry: O=C(O)COc1ccc(Cl)cc1Cl [(C13) 2,4-D, 2,4-D] 0

###

Listed here: items and their measured Damage to crop plants (%) wheat (GA-tolerant).
# System: wheat (GA-tolerant)
# Assay type: in vivo
# CONDITION_SUMMARY: Table 5; greenhouse, post-emergence, 14 days after application; g of ai/ha: A1.1 100, B1.1 5, C7 100, C25 1.25, C52 2.5, C43 100, C57 5; mixtures at same rates
# output: bare number, implied unit %

Some molecules with known Damage to crop plants (%) wheat (GA-tolerant) results, for comparison:
[
  {
    "MOLECULE": "Cc1cc(Cl)ccc1OCC(=O)O",
    "NUMBER": 0
  },
  {
    "MOLECULE": "CP(=O)(O)CCC(N)C(=O)O (stereo not shown) [(A1.1) GA, glufosinate-ammonium]",
    "NUMBER": 10
  },
  {
    "MOLECULE": "COc1ncc(F)c2nc(S(=O)(=O)Nc3c(F)cccc3F)nn12",
    "NUMBER": 0
  }
]

Now examine the next entry.
Reported Damage to crop plants (%) wheat (GA-tolerant) for N#Cc1cc(Br)c(O)c(Br)c1 : what is it? 0

###

Damage to crop plants (%) wheat (GA-tolerant) values, listed per item
# Test system: wheat (GA-tolerant)
# Assay type: in vivo
# CONDITION_SUMMARY: in vivo
Provide only the numeric value, understood in %.

Example results:
[
  {
    "COMPOUND": "COC(=O)c1ccc(CNS(C)(=O)=O)cc1S(=O)(=O)NC(=O)Nc1nc(OC)cc(OC)n1 [(C52) mesosulfuron-me, mesosulfuron-methyl]",
    "NUMBER": 0
  },
  {
    "COMPOUND": "Cc1nn(C)c(O)c1C(=O)c1ccc(C(F)(F)F)cc1S(C)(=O)=O [(C61) pyrasulfutole, pyrasulfutole]",
    "NUMBER": 0
  },
  {
    "COMPOUND": "C#CCOC(=O)[C@@H](C)Oc1ccc(Oc2ncc(Cl)cc2F)cc1 [(C12) clodinafop, clodinafop-propargyl]",
    "NUMBER": 0
  },
  {
    "COMPOUND": "COc1cc(OC)nc(NC(=O)NS(=O)(=O)N(C)S(C)(=O)=O)n1 [(C5) amidosulfuron, amidosulfuron]",
    "NUMBER": 0
  }
]

Which measured Damage to crop plants (%) wheat (GA-tolerant) value corresponds to COC(=O)c1csc(C)c1S(=O)(=O)NC(=O)n1nc(OC)n(C)c1=O [(C66) thiencarbazone-me, thiencarbazone-methyl] ? 5

###

# Tested on: Setaria viridis
# TEST_NAME: Greenhouse trial: herbicidal efficacy, Setaria viridis
# Format: in vivo
# CONDITION_SUMMARY: post-emergence 2-4-leaf, 14 days after application, g of ai/ha: A1.1 100, line r12 5, C28 50, C40 1, C43 100, C13 50, mixtures (100 + 5) + partner rate
Below, each entry is listed alongside its reported Herbicidal efficacy (%) Setaria viridis.
Put your answer as a value accompanied by its unit after it.

These solved cases illustrate the format of a correct answer.
[
  {
    "MOLECULE": "O=C(O)COc1ccc(Cl)cc1Cl [(C13) 2,4-D, 2,4-D]",
    "Herbicidal efficacy (%) Setaria viridis": "0%"
  },
  {
    "MOLECULE": "CC(C)N(C(=O)COc1nnc(C(F)(F)F)s1)c1ccc(F)cc1 [(C28) flufenacet, flufenacet (thiafluamide)]",
    "Herbicidal efficacy (%) Setaria viridis": "20%"
  },
  {
    "MOLECULE": "COC(=O)c1ccc(I)cc1S(=O)(=O)[N-]C(=O)Nc1nc(C)nc(OC)n1.[Na+] [(C40) iodosulfuron-me-Na, iodosulfuron-methyl-sodium]",
    "Herbicidal efficacy (%) Setaria viridis": "10%"
  }
]

Kindly consider the entry below.
Endpoint output: Herbicidal efficacy (%) Setaria viridis of Cc1cc(Cl)ccc1OCC(=O)O [(C43) MCPA, MCPA] . Value? 0%

###

# Test system: wheat (GA-tolerant)
# Assay type: in vivo
# CONDITION_SUMMARY: Table 4; greenhouse, post-emergence, 14 days after application; g of ai/ha: A1.1 100, B1.1 5, C5 1.25, C24 12.5, C9 7.5, C32 62.5, C37 5, C58 5, C60 10, C61 25, C66 0.375, C71 0.5, C74 0.375, C42 125; mixtures at same rates
TEST_READOUT: Damage to crop plants (%) wheat (GA-tolerant)
Please give a number only; it is taken to be in %.

[
  {
    "COMPOUND": "COCc1cnc(C2=NC(C)(C(C)C)C(=O)N2)c(C(=O)O)c1 (stereo not drawn)",
    "NUMBER": 15
  },
  {
    "COMPOUND": "CNC1=C(c2cccc(C(F)(F)F)c2)C(=O)C(c2ccccc2)O1 (stereo not drawn)",
    "NUMBER": 15
  },
  {
    "COMPOUND": "CCOC(=O)C(Cl)Cc1cc(-n2nc(C)n(C(F)F)c2=O)c(F)cc1Cl (stereo not drawn)",
    "NUMBER": 10
  }
]

State its Damage to crop plants (%) wheat (GA-tolerant) on wheat (GA-tolerant): COc1nc(C)nc(N(C)C(=O)NS(=O)(=O)c2ccccc2C(=O)O)n1 0

Next record, please: CCCOc1nn(C(=O)[N-]S(=O)(=O)c2ccccc2C(=O)OC)c(=O)n1C.[Na+] [(C60) propoxycarbazone-Na, propoxycarbazone-sodium] 10

Next entry: CP(=O)(O)CCC(N)C(=O)O (stereo not drawn) [(A1.1) GA, glufosinate-ammonium] 10

###

Measured Damage to crop plants (%) wheat (GA-tolerant), listed per entry for reference.
# System: wheat (GA-tolerant)
# Type: in vivo
# CONDITION_SUMMARY: in vivo
Reply with just the number (in %).

Please review the following examples before continuing.
[
  {
    "MOL": "COc1cnc(OC)n2nc(NS(=O)(=O)c3c(OCC(F)F)cccc3C(F)(F)F)nc12",
    "ENDPOINT_UNIT": "%",
    "NUMBER": 0
  },
  {
    "MOL": "COC(=O)c1nc(-c2ccc(Cl)c(OC)c2F)cc(N)c1Cl",
    "ENDPOINT_UNIT": "%",
    "NUMBER": 0
  },
  {
    "MOL": "COc1cc(OC)n2nc(NS(=O)(=O)c3c(C(F)(F)F)ccnc3OC)nc2n1",
    "ENDPOINT_UNIT": "%",
    "NUMBER": 10
  }
]

For the next question, use this compound.
Item: CC(C)c1ccc(NC(=O)N(C)C)cc1 Test system: wheat (GA-tolerant) Read-out: Damage to crop plants (%) wheat (GA-tolerant) Value: ? 0
